Exercise: state measured phytotoxicity rating CASOB for each of the compounds provided.
system: sicklepod (Cassia obtusifolia, CASOB); experiment: Post-emerge test, greenhouse herbicide activity screening; format: in vivo; conditions: post-emerge, 250 g ai/ha, 14 days after application, rating scale 0-100
Answers are plain numbers.

Consider the worked cases shown below.
>  <compound>
COc1c(Cl)cc(F)c(-n2c(=O)cc(C(F)(F)F)n(C)c2=O)c1NC(=O)c1ccccc1Cl

>  <target>
sicklepod (Cassia obtusifolia, CASOB)

>  <recorded-result>
100

$$$$
>  <compound>
Cc1c(Cl)cc(F)c(-n2c(=O)cc(C(F)(F)F)n(C)c2=O)c1NC(=O)c1ccc2ccccc2c1

>  <target>
sicklepod (Cassia obtusifolia, CASOB)

>  <recorded-result>
100

$$$$
>  <compound>
COc1c(Cl)cc(F)c(-n2c(=O)cc(C(F)(F)F)n(C)c2=O)c1NC(=O)OC(C)c1ccccc1 (stereo not shown)

>  <target>
sicklepod (Cassia obtusifolia, CASOB)

>  <recorded-result>
100

$$$$

Problem: Report phytotoxicity rating CASOB for COc1c(Cl)cc(F)c(-n2c(=O)cc(C(F)(F)F)n(C)c2=O)c1NC(=O)OCc1cc(F)ccc1F tested on sicklepod (Cassia obtusifolia, CASOB).
Solution: 100

----------
So I've got a bunch of compounds here, and I need their Post-emerge Herbicidal Activity, phytotoxicity rating SETVI values.
system: green foxtail (Setaria viridis, SETVI); assay: Post-emerge test, greenhouse herbicide activity screening; assay type: in vivo; details: Rate 63 g ai/ha; rating scale 0-100 (0 no damage, 100 complete death); 14 days after application
Give bare numbers.

Solved entries (count: 3):
>  <compound>
C#CCOC(=O)C(Cl)Cc1c(OC)c(Cl)cc(F)c1-n1c(=O)cc(C(F)(F)F)n(C)c1=O (single isomer, unassigned) [14-20]

>  <target>
green foxtail (Setaria viridis, SETVI)

>  <recorded-result>
0

$$$$
>  <compound>
COc1c(Cl)cc(F)c(-n2c(=O)cc(C(F)(F)F)n(C)c2=O)c1CC(Cl)C(=O)OCCC(C)C (single isomer, unassigned) [14-16]

>  <target>
green foxtail (Setaria viridis, SETVI)

>  <recorded-result>
0

$$$$
>  <compound>
COc1c(Cl)cc(F)c(-n2c(=O)cc(C(F)(F)F)n(C)c2=O)c1CC(Cl)C(=O)OCC(C)C (single isomer, unassigned) [14-15]

>  <target>
green foxtail (Setaria viridis, SETVI)

>  <recorded-result>
70

$$$$

Please state, for each entry, its recorded Post-emerge Herbicidal Activity, phytotoxicity rating SETVI.
1. COc1c(Cl)cc(F)c(-n2c(=O)cc(C(F)(F)F)n(C)c2=O)c1CC(C)(Cl)C(=O)OC(C(F)(F)F)C(F)(F)F (stereo not drawn) [14-46]
2. CCCCCOC(=O)C(Cl)Cc1c(OC)c(Cl)cc(F)c1-n1c(=O)cc(C(F)(F)F)n(C)c1=O (single isomer, unassigned) [14-11]

Solution:
1. 90
2. 80

Problem: What value of Post-emerge Herbicidal Activity, phytotoxicity rating SETVI has been reported for the following compound? COCCOC(=O)C(Cl)Cc1c(OC)c(Cl)cc(F)c1-n1c(=O)cc(C(F)(F)F)n(C)c1=O (stereo not drawn) [14-25]
Solution: 50

----------
Please go through the items and note down their phytotoxicity rating AMARE.
test system: redroot pigweed (Amaranthus retroflexus, AMARE); assay: Post-emerge test, greenhouse herbicide activity screening; format: in vivo; details: post-emerge, 63 g ai/ha, 14 days after application, rating scale 0-100
Numbers only.

>  <substance-smiles>
COc1c(Cl)cc(F)c(-n2c(=O)cc(C(F)(F)F)n(N)c2=O)c1NC(=O)c1ccc(F)cc1F

>  <recorded-result>
50

$$$$
>  <substance-smiles>
COc1c(Cl)cc(F)c(-n2c(=O)cc(C(F)(F)F)n(C)c2=O)c1NC(=O)c1ccc(F)cc1F

>  <recorded-result>
95

$$$$
>  <substance-smiles>
COc1c(Cl)cc(F)c(-n2c(=O)cc(C(F)(F)F)n(C)c2=O)c1NC(=O)c1ccc(C#N)cc1

>  <recorded-result>
100

$$$$

Problem: Name the recorded phytotoxicity rating AMARE for COc1c(Cl)cc(F)c(-n2c(=O)cc(C(F)(F)F)n(C)c2=O)c1NC(=O)COC(C)=O .
Solution: 10
